The following molecules are shown together with reported pIC50 values.
- targetUnderTest: CD73 enzymatic activity expressed on the cell surface of MDA-MB-231 cells (Homo sapiens)
- Construct: Human breast cancer cells MDA-MB-231 that endogenously express CD73 were used
- Sequence (P21589 27-549): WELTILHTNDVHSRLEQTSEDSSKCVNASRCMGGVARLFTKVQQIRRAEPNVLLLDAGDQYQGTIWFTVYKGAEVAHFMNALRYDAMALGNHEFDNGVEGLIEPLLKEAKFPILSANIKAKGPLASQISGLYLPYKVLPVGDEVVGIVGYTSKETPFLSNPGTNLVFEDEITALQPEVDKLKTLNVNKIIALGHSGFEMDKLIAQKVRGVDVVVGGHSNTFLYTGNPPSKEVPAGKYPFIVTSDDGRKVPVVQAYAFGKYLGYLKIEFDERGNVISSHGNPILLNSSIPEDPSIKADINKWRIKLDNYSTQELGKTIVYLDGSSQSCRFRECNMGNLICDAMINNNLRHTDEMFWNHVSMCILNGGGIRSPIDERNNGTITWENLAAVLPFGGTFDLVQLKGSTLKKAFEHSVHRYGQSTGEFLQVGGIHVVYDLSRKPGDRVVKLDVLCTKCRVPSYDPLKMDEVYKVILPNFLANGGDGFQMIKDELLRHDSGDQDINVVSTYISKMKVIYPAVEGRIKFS
- runDescription: Inhibition of CD73 enzymatic activity on the cell surface (Cell Titer Glo (CTG) experiment), MDA-MB-231 cells
- experimentalConditions: MDA-MB-231 cells endogenously expressing CD73, AMP, 37° C. for 2 hours, CTG readout; read-out: Cellular activity IC50
pIC50: −log10 of the molar value.
propertyMeasured: pIC50

[[record]]
samplesmiles = "C[C@@H](Nc1nc(Cl)nc2c1cnn2[C@@H]1O[C@H](COP(=O)(O)CP(=O)(O)O)[C@@H](O)[C@H]1O)c1ccc(S(F)(F)(F)(F)F)cc1F"
propertymeasured = "pIC50"
recordedmeasurement = 9.14

[[record]]
samplesmiles = "O=P(O)(O)CP(=O)(O)OC[C@H]1C[C@@H](c2ccc3c(N[C@H]4CCc5ccccc54)nc(Cl)nn23)[C@H](O)[C@@H]1O"
propertymeasured = "pIC50"
recordedmeasurement = 8.50

[[record]]
samplesmiles = "O=P(O)(O)CP(=O)(O)OC[C@H]1O[C@@H](n2ncc3c(N[C@@H]4CCc5ccc(F)cc54)cc(Cl)nc32)[C@H](O)[C@@H]1O"
propertymeasured = "pIC50"
recordedmeasurement = 9.85

[[record]]
samplesmiles = "O=P(O)(O)CP(=O)(O)OC[C@H]1O[C@@H](n2ncc3c(NCc4ccccc4S(F)(F)(F)(F)F)cc(Cl)nc32)[C@H](O)[C@@H]1O"
propertymeasured = "pIC50"
recordedmeasurement = 9.68

[[record]]
samplesmiles = "O=P(O)(O)CP(=O)(O)OC[C@H]1C[C@@H](c2ccc3c(N[C@H]4CCc5ccc(C(F)(F)F)cc54)nc(Cl)nn23)[C@H](O)[C@@H]1O"
propertymeasured = "pIC50"
recordedmeasurement = 8.24

[[record]]
samplesmiles = "C[C@@H](Nc1cc(Cl)nc2c1cnn2[C@@H]1O[C@H](COP(=O)(O)CP(=O)(O)O)[C@@H](O)[C@H]1O)c1cccc(S(F)(F)(F)(F)F)c1"
propertymeasured = "pIC50"
recordedmeasurement = 8.84

[[record]]
samplesmiles = "O=P(O)(O)CP(=O)(O)OC[C@H]1O[C@@H](n2ncc3c(N[C@@H]4CCc5cc(F)ccc54)cc(Cl)nc32)[C@H](O)[C@@H]1O"
propertymeasured = "pIC50"
recordedmeasurement = 9.75

[[record]]
samplesmiles = "O=P(O)(O)CP(=O)(O)OC[C@H]1O[C@@H](n2ncc3c(N[C@@H]4CCc5ccc(C(F)(F)F)cc54)cc(Cl)nc32)[C@H](O)[C@@H]1O"
propertymeasured = "pIC50"
recordedmeasurement = 9.57

[[record]]
samplesmiles = "O=P(O)(O)CP(=O)(O)OC[C@H]1C[C@@H](c2ccc3c(N[C@H]4CCc5ccc(F)cc54)nc(Cl)nn23)[C@H](O)[C@@H]1O"
propertymeasured = "pIC50"
recordedmeasurement = 9.15

[[record]]
samplesmiles = "C[C@H](Nc1cc(Cl)nc2c1cnn2[C@@H]1O[C@H](COP(=O)(O)CP(=O)(O)O)[C@@H](O)[C@H]1O)c1cccc(S(F)(F)(F)(F)F)c1"
propertymeasured = "pIC50"
recordedmeasurement = 9.23

[[record]]
samplesmiles = "Cc1cc(N[C@@H]2CCc3cc(F)ccc32)c2cnn([C@@H]3O[C@H](COP(=O)(O)CP(=O)(O)O)[C@@H](O)[C@H]3O)c2n1"
propertymeasured = "pIC50"
recordedmeasurement = 9.59

[[record]]
samplesmiles = "O=P(O)(O)CP(=O)(O)OC[C@H]1C[C@@H](c2ccc3c(N[C@H]4CCc5cc(F)ccc54)nc(Cl)nn23)[C@H](O)[C@@H]1O"
propertymeasured = "pIC50"
recordedmeasurement = 8.60

[[record]]
samplesmiles = "O=P(O)(O)CP(=O)(O)OC[C@H]1C[C@@H](c2ccc3c(N[C@H]4CCc5cc(F)cc(F)c54)nc(Cl)nn23)[C@H](O)[C@@H]1O"
propertymeasured = "pIC50"
recordedmeasurement = 8.62

[[record]]
samplesmiles = "O=P(O)(O)CP(=O)(O)OC[C@H]1C[C@@H](c2ccc3c(N[C@H]4CCc5cc(Cl)ccc54)nc(Cl)nn23)[C@H](O)[C@@H]1O"
propertymeasured = "pIC50"
recordedmeasurement = 7.22

[[record]]
samplesmiles = "Cc1cc(N[C@@H]2CCc3cc(F)cc(F)c32)c2cnn([C@@H]3O[C@H](COP(=O)(O)CP(=O)(O)O)[C@@H](O)[C@H]3O)c2n1"
propertymeasured = "pIC50"
recordedmeasurement = 9.61

[[record]]
samplesmiles = "O=P(O)(O)CP(=O)(O)OC[C@H]1C[C@@H](c2ccc3c(N[C@@H]4CCc5cc(Cl)ccc54)nc(Cl)nn23)[C@H](O)[C@@H]1O"
propertymeasured = "pIC50"
recordedmeasurement = 9.58

[[record]]
samplesmiles = "C[C@@H](Nc1cc(Cl)nc2c1cnn2[C@@H]1O[C@H](COP(=O)(O)CP(=O)(O)O)[C@@H](O)[C@H]1O)c1ccc(S(F)(F)(F)(F)F)cc1F"
propertymeasured = "pIC50"
recordedmeasurement = 9.00

[[record]]
samplesmiles = "O=P(O)(O)CP(=O)(O)OC[C@H]1C[C@@H](c2ccc3c(N[C@@H]4CCc5cc(F)ccc54)nc(Cl)nn23)[C@H](O)[C@@H]1O"
propertymeasured = "pIC50"
recordedmeasurement = 9.60

[[record]]
samplesmiles = "C[C@H](Nc1cc(Cl)nc2c1cnn2[C@@H]1O[C@H](COP(=O)(O)CP(=O)(O)O)[C@@H](O)[C@H]1O)c1ccc(S(F)(F)(F)(F)F)cc1"
propertymeasured = "pIC50"
recordedmeasurement = 9.52

[[record]]
samplesmiles = "O=P(O)(O)CP(=O)(O)OC[C@H]1O[C@@H](n2ncc3c(N[C@@H]4CCc5cc(F)cc(F)c54)cc(Cl)nc32)[C@H](O)[C@@H]1O"
propertymeasured = "pIC50"
recordedmeasurement = 9.68

[[record]]
samplesmiles = "C[C@@H](Nc1cc(Cl)nc2c1cnn2[C@@H]1O[C@H](COP(=O)(O)CP(=O)(O)O)[C@@H](O)[C@H]1O)c1ccc(S(F)(F)(F)(F)F)cc1"
propertymeasured = "pIC50"
recordedmeasurement = 8.79


This collection of values is drawn from patent US12157755B2.
